Tested on: MOLT-4 leukemia
Assay: NCI tumour cell line growth inhibition, 48 h
measure: TGI

Please review the entries below; each comes with its answer.
compound=CN=C1C=CC(=C(c2ccc(N(C)C)cc2)c2ccc(N(C)C)cc2)C=C1 subjectoftest="MOLT-4 leukemia" endpointvalue="6.98 µM"
compound=Cc1cc(C)c(C#N)c(Sc2nc(C)c([N+](=O)[O-])c(C)c2C#N)n1 subjectoftest="MOLT-4 leukemia" endpointvalue="> 100 µM"
compound=O=C(Nc1ccccc1I(=O)=O)C1CCCCC1 subjectoftest="MOLT-4 leukemia" endpointvalue="> 100 µM"

Below: the item to evaluate.
Note TGI for the compound shown: COC1CC(O)C(OC(=O)c2ccccc2)C(C)O1 (centres undefined) > 100 µM

Origin of values: PubChem BioAssay (NCI)
